Reported IC50 values are given for each entry in this list.
Tested on: L. donovani infected macrophage cells
measurement protocol: L. donovani infected macrophage assay
Format: cell-based
measurement context: Leishmania donovani, macrophages infected with L. donovani
endpoint label: IC50 (µg/mL)

COCCCNc1cc(-n2nc(C)c3c2CCCC3=O)ccc1C(N)=O [Compound 10]    0.65
COCCCNc1cc(-n2nc(C)c3c2CN(Cc2ccccc2)CC3=O)ccc1C(N)=O [Compound 3a]    6.33
COCCCNc1cc(-n2nc(C)c3c2CN(C(=O)COC)CC3=O)ccc1C(N)=O [Compound 3f]    3.57
COCCCNc1cc(-n2nc(C)c3c2CC(C)(C)CC3=O)ccc1C(N)=O [Compound 2]    0.879
COCCCNc1cc(NC2CC(C)(C)Cc3ncccc32)ccc1C(N)=O (centres unmarked) [Compound 6]    5.38
COCCCNc1cc(-n2nc(C)c3c2CN(C(=O)c2ccc(C)cc2)CC3=O)ccc1C(N)=O [Compound 3h]    1.75
CCC(=O)N1CC(=O)c2c(C)nn(-c3ccc(C(N)=O)c(NCCCOC)c3)c2C1 [Compound 3d]    3.54
